Assay: folding stability dG unfold from trypsin proteolysis; higher = more stable
A collection of sequences and their measured folding stability dG unfold
State just the number; it will be interpreted in kcal/mol.

Return folding stability dG unfold (reported value) for this sequence: SAGGSAGGSMRTITYEFPPGTTKEEVIEKVKELAKKEGLPIEKIESITEDPETGTYTVTVVVKSAGGSAGGS [r12_131_JUSTAS] 4.2

Given SAGGSAGGSAGGENDWIPIRMEMTFKLPNGVKITIKMEMWVQPDGDILGMRIHDIEIEVPSAGGSAGGSAGG [r7_356_TrROS] , respond with its folding stability dG unfold. 3.6

For the sequence SAGGKPKVEIKIEEIPVDGELYLVIEIKVEEKNATLTLTLPNGEEITMEFDEETGTVRIIARIPLEDLSAGG [r13_380_TrROS_Hall] , report folding stability dG unfold. 3.24

Return folding stability dG unfold (reported value) for this sequence: SSSSMKTITLEKKITSPEEAEALREELLKKGYEVEVKVYPHPDSYIAKITVTIEVPPPPLSPTNPSALLKSA [r9_863_JUSTAS] 1.19

Give the measured folding stability dG unfold for SAGGSAGGKPDLLLEARTDLFGEEREAEVFYDPSPPVLTITLPDGTVITLPEEEVEIEKETPLISAGGSAGG [r6_185_JUSTAS] -0.297

Fill in reported folding stability dG unfold for this entry: SAGMARIIPNPPVIEVVRKDGSKLVIPPEEIEELRAALEAKGGPYTPEEIAEAIRKLFPDYEVSIVPASAGG [r19_46_TrMRF] -0.284

Determine from records and report folding stability dG unfold for SAGGSMEVKVEVVKDEETKEYYVKVEIRDPKTKKTITLEYKVKEEDKEEALKKAKELAEELAKKGISAGGSA [r2_221_TrROS_Hall] 3.27

Provide one value: measured folding stability dG unfold of SEMSVEEILKKIAEELLKKNPNKEVTKEIEIEFEKPDPEGKRLLKEKVKATIKVTPDKIEILSESREILLSA [r9_361_JUSTAS] 1.52

Dear colleague, please send me the reported folding stability dG unfold for SAGMTSVLTLEEVSPEELRAKIDEALATLPEGTIFVLPSEELAEVVKELHPGVPVVVRDEATGRLTEVGSAG [r5_391_JUSTAS] when you can. 1.17

Provide measured folding stability dG unfold value, entry: SMYYYGKFTFTNPTGGPTIGDVYIITKSKEEAEALAKEEASKKNVKVEIEIKEIPESEYENPEKVKELLSSA [r9_864_JUSTAS] 0.285

For the next question, use this sequence.
Report measured folding stability dG unfold; entry is SAGMTVTVTLNYPTPGGPVTVRVLRGDEEEVVTVPPTETLTITVTLDPDSGATIEVFFPDGSSKTYPLGSAG [r5_187_JUSTAS] 2.81

---

Assay: folding stability dG unfold from trypsin proteolysis; higher = more stable
Rule: folding stability dG unfold under 1 kcal/mol gives False, otherwise True.

Take a look at these entries with their results.
Reported folding stability dG unfold at or above 1 kcal/mol? SAGGSAGGSAAPDEKLKITVELVDPNNGKRIEEKEYPNMTIEEVKKEAEEKGLKIVKIEVSSAGGSAGGSAG [r3_423_JUSTAS] False

Hi team, for SAGPKIRTIIKEILKELNPDRPIEIHTHPDGFIIIVNPDDGRFIMIKIDPDGDIKISEVVPAEEMKKMMSAG [r5_852_TrROS] , is the recorded folding stability dG unfold at or above 1 kcal/mol? True

Next:
I'd appreciate it if you could say whether SAGGSAGGPNWVKFPIMFEMPIPVVPKMEKDPDGENRMEPVKPVRISIMIELTLPPDDLEDLIKSAGGSAGG [r6_120_TrROS] has folding stability dG unfold at least equal to 1 kcal/mol. True

// inclusive: folding stability dG unfold at least 1 kcal/mol? input: SAGGDPDGKPKIEIKIKDINVEPDPDNGYYRATIKIRFPNGREINFDIPMPPGQTAEQVKEQAREMIQSAGG [r13_578_TrROS] True

Reported folding stability dG unfold reaches at least 1 kcal/mol for SAKKIPLDDAKIRIKMESPNGMIMEFPIKNVQIDPKNGKLSFEFPMRIYNPDNGKERPMRMKIDEIVPVSAG [r14_825_TrROS] ? False

Exam item: decide whether the reported folding stability dG unfold for SAGGSAGGSWIILIHWPNGKEIPIFFKSPEEANEIAEEIKKIFQEKGMEPVSVEIYPIKPGQMSAGGSAGGS [r12_301_TrROS] is at least 1 kcal/mol. True

State whether the measured folding stability dG unfold reaches 1 kcal/mol, counting equality as reaching it, for SAGGSAGGSAGGLVAKVYRDGKEAVFYFDSPEEMVESIRPLFPDGKEVKVEVTTPEELFSAGGSAGGSAGGS [r10_1167_TrMRF] False
